For each entry below, report its protein stability index value.
B1: BRF1 (parent)
chain: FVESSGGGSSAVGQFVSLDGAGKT

- Variants of: B1
- Assay Summary: protein stability index of a GFP-peptide fusion (GPS, HEK-293T) (PSI 1-6); higher = more stable;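 note: lentivirally expressed fusions sorted by FACS into six bins by GFP to DsRed ratio, PSI derived from sequencing read proportions per bin multiplied by bin number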
- Condition: c terminus: a fixed tail appended
Numbers only.

> print(dat)
   mutant  numeric.value
1     S5L           1.36
2    G13F           4.42
3     S4G           2.81
4     G7T           2.38
5    G20E           2.55

The following variants each have a reported value; give each one's protein stability index.
1. G22P
2. G13H
3. T24I
4. G6L
5. Q14I
6. V12P

3.13
1.84
2.59
1.97
2.53
1.86

Source listed as the supplement of paper PMC10567573.
